test system: EMT6; assay: Biodistribution in tumor of mouse EMT6 tumor bearing BALB/c mouse at 10 to 20 uCi after 5 mins; type: ADME, organism-based; conditions: emt6, 5 min
Endpoint name: Drug uptake (% ID/g)
State just the number; it will be interpreted in % ID/g.

Consider the following illustrative entries.
1) COc1cc2c(cc1OC)CN(CCCCNC(=O)c1cc(I)ccc1OCC[18F])CC2 | 2.54
2) COc1cc2c(cc1OC)CN(CCCCNC(=O)c1cc(Br)ccc1OCC[18F])CC2 | 3.28

Prompt: # query: Drug uptake of entry COc1cc2c(cc1OC)CN(CCCCNC(=O)c1cc(C)ccc1OCC[18F])CC2
Completion: 3.67

Prompt: Let us now turn to COc1cc2c(cc1OC)CN(CCCCNC(=O)c1cc(I)cc(OC)c1OCC[18F])CC2
Completion: 3.05
